Listed next: entries and their corresponding MDCK-mdr1 AB.
# System: MDCK-MDR1 monolayer
# Assay text: MDCK-MDR1 monolayer permeability / P-gp efflux
# Type: in vitro ADME
# Measurement context: csv file; AB direction
Write it as a number; the unit x10–6 cm/s goes unstated.

[
  {
    "Molecule": "O=C1CN(C(=O)CSc2ncnc3c(C4CC4)c(Cl)sc23)CN1 [Compound 17g]",
    "Scale unit": "x10–6 cm/s",
    "Measured value": 3.8
  },
  {
    "Molecule": "O=C(CSc1ncnc2c(C3CC3)c(Cl)sc12)N1CCn2cncc2C1 [Compound 17n]",
    "Scale unit": "x10–6 cm/s",
    "Measured value": 9
  },
  {
    "Molecule": "O=C(CSc1ncnc2c(C3CC3)c(Cl)sc12)N1CCn2c(nnc2C(F)(F)F)C1 [Compound 17q]",
    "Scale unit": "x10–6 cm/s",
    "Measured value": 12
  }
]

// moving on: another record for MDCK-mdr1 AB
Per the record, O=C(CSc1ncnc2c(C3CC3)c(Cl)sc12)N1CCOCC1 [Compound 17c] has MDCK-mdr1 AB of 40

---

# Assay text: Mouse pharmacokinetics, plasma and brain, oral dose
# Type: in vivo, CD1 mouse
# Measurement context: CD1, po, plasma, p.o. 10 mg/kg
# From the text: The route of administration and dose were selected to most closely match relevant published mouse disease model studies. […] Table S1: Study design summary S8 (1 picture or pasted object on this page, not shown here)
Measure: half-life (h)
The reply should contain only the number, in h.

The measured half-life associated with O=C(O)CSc1ncnc2c(C3CC3)c(Cl)sc12 [Compound 1] reads 8.8

---

# Assay text: Metabolic stability in mouse liver microsomes (MLM)
# Type: in vitro ADME
# Measurement context: csv file
Measure: MLM Cli

Below, each entry is followed by its recorded MLM Cli result.
[
  {
    "Compound": "O=C(CSc1ncnc2c(C3CC3)c(Cl)sc12)N1CCn2ccnc2C1 [Compound 17m]",
    "Measure": "MLM Cli",
    "Measured value": "290 µL/min/mg"
  },
  {
    "Compound": "O=C(CSc1ncnc2c(C3CC3)c(Cl)sc12)N1CC2COCC2C1 (centres unmarked) [Compound 17e]",
    "Measure": "MLM Cli",
    "Measured value": "> 500 µL/min/mg"
  }
]

Recorded MLM Cli (compound O=C1CN(C(=O)CSc2ncnc3c(C4CC4)c(Cl)sc23)CCN1 [Compound 17i] ): 24 µL/min/mg

Sure, the documented MLM Cli for O=C(CSc1ncnc2c(C3CC3)c(Cl)sc12)N1CCn2cnnc2C1 [Compound 17p] is 29 µL/min/mg

Recorded result, O=C(CSc1ncnc2c(C3CC3)c(Cl)sc12)N1CCOCC1 [Compound 17c] , MLM Cli: > 500 µL/min/mg

---

# System: MDCK-MDR1 monolayer
# Assay text: MDCK-MDR1 monolayer permeability / P-gp efflux
# Assay type: in vitro ADME
# Measurement context: Table S4
# if measured efflux ratio < 3: t  # else: f

[
  {
    "Compound": "CN1CN(C(=O)CSc2ncnc3c(C4CC4)c(Cl)sc23)CC1=O [Compound 17h]",
    "Target entity": "MDCK-MDR1 monolayer",
    "Cat": "t"
  },
  {
    "Compound": "O=C(CSc1ncnc2c(C3CC3)c(Cl)sc12)N1CCn2nncc2C1 [Compound 17r]",
    "Target entity": "MDCK-MDR1 monolayer",
    "Cat": "t"
  },
  {
    "Compound": "O=C(CSc1ncnc2c(C3CC3)c(Cl)sc12)N1CCn2ccnc2C1 [Compound 17m]",
    "Target entity": "MDCK-MDR1 monolayer",
    "Cat": "t"
  },
  {
    "Compound": "O=C(CSc1ncnc2c(C3CC3)c(Cl)sc12)N1CCOCC1 [Compound 17c]",
    "Target entity": "MDCK-MDR1 monolayer",
    "Cat": "t"
  },
  {
    "Compound": "O=C(CSc1ncnc2c(C3CC3)c(Cl)sc12)N1CCn2cnnc2C1 [Compound 17p]",
    "Target entity": "MDCK-MDR1 monolayer",
    "Cat": "f"
  }
]

Hello, is efflux ratio of the following compound strictly smaller than 3? O=C1CN(C(=O)CSc2ncnc3c(C4CC4)c(Cl)sc23)CN1 [Compound 17g] f

Hello, is efflux ratio of the following compound strictly smaller than 3? O=C(CSc1ncnc2c(C3CC3)c(Cl)sc12)N1CCn2c(nnc2C(F)(F)F)C1 [Compound 17q] t

Find out if reported efflux ratio for O=C1CN(C(=O)CSc2ncnc3c(C4CC4)c(Cl)sc23)CCN1 [Compound 17i] is less than 3 f

Problem: For the compound O=C(CSc1ncnc2c(C3CC3)c(Cl)sc12)N1CCn2cncc2C1 [Compound 17n] , is efflux ratio under 3? f

The origin of these recorded values is paper PMC6880826.
